Values were extracted from ChEMBL document CHEMBL4513216.

Quick reference for INHIBITION among some molecules
- Tested on: Plasmodium berghei
- procedure_summary: Screen against P. berghei liver stage (PbLuc), transformed with Luciferase, at 10uM
- Assay type: functional, HepG2
- measurement_parameters: tested at 10 uM
Screen size: about 69,000 compounds; about 8,600 (12%) showed an effect of 50% or more. This excerpt belongs to a sample that is enriched for strong results.
measurement_name: INHIBITION

molecule: CCc1n[nH]c(C2CN(Cc3nc(C4CC4)no3)CCO2)n1 (stereo unspecified)
measurement_name: INHIBITION
measurement: 64.9%
//
molecule: O=C(c1n[nH]c2c1CN(C1CCOC1)CC2)N1CCCC1 (stereo unspecified)
measurement_name: INHIBITION
measurement: 12.4%
//
molecule: CCc1n[nH]c(C2CN(Cc3nnc(C4CC4)n3C)CCO2)n1 (stereo unspecified)
measurement_name: INHIBITION
measurement: -17.5%
//
molecule: COCC1CN(S(=O)(=O)c2cccc(F)c2)Cc2nccn2C1 (stereo unspecified)
measurement_name: INHIBITION
measurement: 41.2%
//
molecule: CCc1n[nH]c(C2CN(Cc3nnc(C4CCC4)o3)CCO2)n1 (stereo unspecified)
measurement_name: INHIBITION
measurement: 9.14%
//
molecule: COC(=O)CCN1CCC(NC(=O)OC(C)(C)C)CC1
measurement_name: INHIBITION
measurement: 50.2%

* * *

- Tested on: Plasmodium berghei
- procedure_summary: Screen against P. berghei liver stage (PbLuc), transformed with Luciferase, at 10uM
- Assay type: functional, HepG2
- measurement_parameters: tested at 10 uM
About 8,600 (12%) of roughly 69,000 compounds showed an effect of 50% or more. Only a selection was taken, and strong results are over-represented in it overall.
// boundary case: INHIBITION equal to 20% maps to F; strictly smaller maps to T

compound: CN(C)C(=O)c1ccc2ccc(N3CCN(CC4CC4)CC3)n2c1
classification: F

compound: Cn1ncc2c1C(COCC1CC1)CN(c1ncc(F)cn1)C2 (configuration not stated)
classification: T

compound: O=C1CC(NS(=O)(=O)c2ccc(F)c(Cl)c2)CN1 (configuration not stated)
classification: T

compound: O=C(NCC1Cn2nnc(-c3cccc(F)c3)c2CO1)c1ccc[nH]1 (configuration not stated)
classification: T

compound: COCC1CC2(CCN(Cc3cccnc3)CC2)CN1c1ncccn1 (configuration not stated)
classification: F

compound: CN1CCc2ncc(CNc3cc(N(C)C)ncn3)n2CC1
classification: F

compound: CCCOC1CCCN(c2nc(CC)nc3c2cnn3C)C1 (configuration not stated)
classification: T

compound: O=C(CC1CCC1)N1CCCC(CO)(CC2CC2)C1 (configuration not stated)
classification: F

compound: CC(C)NC1CCc2c(ccc(=O)n2CCN(C)C)C1 (configuration not stated)
classification: T

compound: O=c1c2cccc(C(F)(F)F)c2ncn1CCN1CCNCC1
classification: T

compound: Cc1cc(C(=O)CN2CCN(c3cnccn3)CC2)c(C)n1C(C)C
classification: T

compound: Cc1nnc(NC(=O)NCc2ccc(N3CCC(C)CC3)nc2)s1
classification: F

compound: O=C(NC1CC1)c1ccc2ccc(N3CCN(CC4CC4)CC3)n2c1
classification: F

compound: CCN(CC)C(CNS(=O)(=O)c1ccc(C(C)=O)cc1)c1ccco1 (configuration not stated)
classification: F

compound: CN1CCN(C2COC3(CCN(Cc4ccsc4)CC3)C2)CC1 (configuration not stated)
classification: F

compound: O=c1c2cccc(C(F)(F)F)c2ncn1C1CCNC1 (configuration not stated)
classification: F

compound: CCCNC(=O)c1nn(CC)cc1Cl
classification: F

compound: O=C(O)C1(O)CCN(c2ccnc3c(C(F)(F)F)cccc23)CC1
classification: T

compound: Cc1nc[nH]c1-c1c(-c2ccccc2)ncn1C1CCNC1 (configuration not stated)
classification: F

compound: CC(C)Oc1cccc(C(=O)Nc2nncs2)c1
classification: T

compound: COCCN1CCc2ncc(CNc3cc(N(C)C)ncn3)n2CC1
classification: F

compound: CN(C)c1cc(NCc2cnc3n2CCN(CC2CC2)CC3)ncn1
classification: T

compound: O=C(NC1CC1)N1CCc2ccc(=O)n(CC3CC3)c2CC1
classification: T

compound: CC(C)NC1CCc2c(ccc(=O)n2CCN2CCCC2=O)C1 (configuration not stated)
classification: T

compound: COCCN1CCC(NCc2cc(F)ccc2F)C1 (configuration not stated)
classification: T

compound: NCCC(=O)N1CCC2(CC1)CN(C(=O)c1ccc(Cl)cc1)CCO2
classification: T

compound: Cc1ccc(OCc2occc2C(=O)N2C[C@@H]3C(CN(C)C)[C@@H]3C2)cc1 (some centres not stated)
classification: F

compound: COc1ccnc(N2CCCN(Cc3ncc(C(C)C)o3)CC2)n1
classification: T

compound: Cc1nnc2n1CCN(CCOc1ccc(C(C)(C)C)cc1)C2
classification: T

compound: CN(Cc1ccsc1)C(=O)c1ccc(S(=O)(=O)NC(C)(C)C)cc1
classification: T

compound: Cc1ccc(CN2CCC3(CC2)CC(N2CCN(C)CC2)CO3)s1 (configuration not stated)
classification: F

* * *

- Tested on: Plasmodium berghei
- procedure_summary: Screen against P. berghei liver stage (PbLuc), transformed with Luciferase, at 10uM
- Assay type: functional, HepG2
- measurement_parameters: tested at 10 uM
Hit rate of the full screen: of about 69,000 compounds, about 8,600 (12%) showed an effect of 50% or more. Only a selection was taken, and strong results are over-represented in it overall.

molecule: COC[C@]12COC[C@H]1CN(Cc1ccc3c(c1)OCO3)C2
INHIBITION [%]: 35.8
//
molecule: CC(C)c1nnc(CNC2CCCN(Cc3noc(C4CC4)n3)C2)o1 (stereo unspecified)
INHIBITION [%]: 19.5
//
molecule: O=C(c1cc2c(s1)CCOC2)N1CCCC1Cn1cccn1 (stereo unspecified)
INHIBITION [%]: 8.64
//
molecule: O=C(CC1CCCC1)NCCS(=O)(=O)N1CCN(c2ccccc2)CC1
INHIBITION [%]: -16.4
//
molecule: CN(C)C(=O)CN1CCC2(CC1)C[C@@H](O)[C@H](c1ccccc1)NC2=O
INHIBITION [%]: 22
//
molecule: O=C(NCCN1CCCCCC1=O)c1ccc(=O)[nH]n1
INHIBITION [%]: 33.7
//
molecule: COc1ncccc1C(=O)NCCn1nc(C)ccc1=O
INHIBITION [%]: 3.68
//
molecule: CCn1ncc2c1CN(C(=O)c1cscn1)CC2COC (stereo unspecified)
INHIBITION [%]: 45.1
//
molecule: CCc1ccccc1CNC(=O)NCc1cnn(C)c1
INHIBITION [%]: 13.9
//
molecule: Cc1ccc(-c2ncc(C(=O)NCCNC(=O)C3CC3)s2)c(C)c1
INHIBITION [%]: -91.8
//
molecule: CCCC(=O)NC1CCCN(c2cncc(Br)c2)C1 (stereo unspecified)
INHIBITION [%]: 55.4
//
molecule: O[C@@]1(CNCC2(Cn3cccn3)CC2)CCCN2CCCC[C@@H]21
INHIBITION [%]: 1.56
//
molecule: Cc1cnc(N2CC3(CCN(S(=O)(=O)C4CC4)C3)C2)nc1
INHIBITION [%]: 40.3
//
molecule: CCC(C)c1ccc(NC(=O)C2CCN(C(=O)N(C)C)CC2)cc1 (stereo unspecified)
INHIBITION [%]: 76.9
//
molecule: Cc1cnn(CCC(=O)N2CCN(c3ccc(C#N)cn3)CC2)c1
INHIBITION [%]: 5.9
//
molecule: c1cc2c(cc1Cn1cc(C3CCOC3)nn1)CCCO2 (stereo unspecified)
INHIBITION [%]: 46.7
//
molecule: CCc1nnc(Nc2cccc(C3CCN(C(=O)CN(C)C)CC3)n2)s1
INHIBITION [%]: 22
//
molecule: COCC1CN(C(=O)CNC(C)=O)Cc2ncnn2C1 (stereo unspecified)
INHIBITION [%]: 6.8
//
molecule: COCC1CCCN(C(=O)c2ccc(NC(=O)CC(C)C)c(C)c2)C1 (stereo unspecified)
INHIBITION [%]: 4.97
//
molecule: CCc1nnc(Nc2cccc(C3CCN(S(=O)(=O)N(C)C)CC3)n2)s1
INHIBITION [%]: 53.2
//
molecule: CN1CC(=O)N(c2cnn(C)c2)CC12CCN(Cc1cccs1)C2 (stereo unspecified)
INHIBITION [%]: 7.31
//
molecule: COc1ccc(-c2ccccc2CCN)c(OC)c1
INHIBITION [%]: -2.9
//
molecule: CNC(=O)C1(CCCc2ccncc2)CCN1 (stereo unspecified)
INHIBITION [%]: -4.82
//
molecule: CCN1CCCN(C(=O)c2ccc(NC(=O)CC(C)C)c(C)c2)CC1
INHIBITION [%]: 76.6
//
molecule: COc1ccc(-c2cnc(CN(CC(N)=O)C3CCCC3)o2)cc1
INHIBITION [%]: 19.9
//
molecule: CCc1cc(=O)n(CC(=O)N2CCCC2)c(-c2cccc(F)c2)n1
INHIBITION [%]: 46.6
//
molecule: COCC1CN(C(=O)c2ccnnc2)Cc2ncnn2C1 (stereo unspecified)
INHIBITION [%]: -41.6
//
molecule: O=C(c1ccnnc1)N1C[C@H](OCC2CCOCC2)[C@H]2OCCC[C@H]21
INHIBITION [%]: 4.68
//
molecule: Cc1ccccc1CNC(=O)N1C[C@@H]2C[C@H](C(=O)N3CCCC3)[C@H](C1)O2
INHIBITION [%]: -16.9
//
molecule: CCc1noc(CN2CCN(c3nccs3)CC2)n1
INHIBITION [%]: 19.5
//
molecule: CC(=O)NCCNC(=O)C1(N2CCCCC2)Cc2ccccc2C1
INHIBITION [%]: -46.4
//
molecule: O=C(NCCCO)C1(N2CCCCC2)Cc2ccccc2C1
INHIBITION [%]: 0.818
//
molecule: CCOCC(=O)NS(=O)(=O)c1ccc(F)cc1C(F)(F)F
INHIBITION [%]: 0.0944
//
molecule: C[C@@H]1C[C@H](C(F)(F)F)n2nc(C3CCN(S(C)(=O)=O)CC3)cc2N1
INHIBITION [%]: 1.5
//
molecule: Cc1ccc(S(=O)(=O)NC(=O)C2(c3ccc(F)cc3)CCC2)c(C)c1
INHIBITION [%]: 20
//
molecule: Cc1ccc(C)c(C(=O)NC2CCC(N3C(=O)CCC3=O)CC2)c1 (stereo unspecified)
INHIBITION [%]: -56.4
